# assay_target: Serine/threonine-protein kinase 16 (Homo sapiens)
# Sequence (O75716 whole entry): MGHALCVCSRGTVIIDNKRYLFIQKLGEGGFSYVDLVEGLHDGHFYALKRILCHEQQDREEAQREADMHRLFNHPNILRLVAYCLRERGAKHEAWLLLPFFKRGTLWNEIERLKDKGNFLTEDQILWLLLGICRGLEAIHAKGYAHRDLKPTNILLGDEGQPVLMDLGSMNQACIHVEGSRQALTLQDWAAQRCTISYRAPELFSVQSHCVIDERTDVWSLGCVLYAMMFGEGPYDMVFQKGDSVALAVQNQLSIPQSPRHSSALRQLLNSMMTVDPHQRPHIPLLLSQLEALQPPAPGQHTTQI
test_readout: Kd (nM)

               structure_smiles  test_readout  value_observed
0  Oc1c2ccccc2c2c3c(cccc13)N=N2            Kd             510

====

# assay_target: Dual specificity protein kinase TTK (Homo sapiens, UniProt P33981)
# Sequence (P33981 whole entry): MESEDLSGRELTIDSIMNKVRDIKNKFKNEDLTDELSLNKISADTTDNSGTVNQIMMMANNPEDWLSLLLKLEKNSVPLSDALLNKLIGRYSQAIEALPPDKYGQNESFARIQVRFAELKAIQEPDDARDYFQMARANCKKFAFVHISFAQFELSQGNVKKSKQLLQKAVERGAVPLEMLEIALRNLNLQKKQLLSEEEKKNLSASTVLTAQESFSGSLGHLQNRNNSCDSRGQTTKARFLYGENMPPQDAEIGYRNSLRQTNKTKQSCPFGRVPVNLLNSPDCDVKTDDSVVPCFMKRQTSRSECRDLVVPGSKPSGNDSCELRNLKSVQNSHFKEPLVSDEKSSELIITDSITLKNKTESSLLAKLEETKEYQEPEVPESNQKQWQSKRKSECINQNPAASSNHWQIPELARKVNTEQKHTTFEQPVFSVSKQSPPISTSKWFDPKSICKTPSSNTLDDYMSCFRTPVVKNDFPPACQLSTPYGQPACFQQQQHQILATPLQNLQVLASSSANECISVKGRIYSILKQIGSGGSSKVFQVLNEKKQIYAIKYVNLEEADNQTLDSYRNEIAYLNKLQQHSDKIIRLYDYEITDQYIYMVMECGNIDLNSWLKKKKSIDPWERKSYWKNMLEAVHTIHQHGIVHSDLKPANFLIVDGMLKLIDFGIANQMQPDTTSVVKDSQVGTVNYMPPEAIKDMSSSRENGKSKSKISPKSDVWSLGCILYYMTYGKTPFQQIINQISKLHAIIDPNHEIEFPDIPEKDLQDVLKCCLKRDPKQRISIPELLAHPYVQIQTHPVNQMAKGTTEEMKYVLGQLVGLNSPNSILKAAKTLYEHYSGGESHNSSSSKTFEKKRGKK
pKd: −log10 of the molar value.
test_readout: pKd

>>> print(df.to_string())
                                   compound  test_readout  value_observed
0  Oc1c2ccccc2c2c3c(cccc13)N=N2 [SP-600125]           pKd            7.01

====

Quick record of Kd values for Serine/threonine-protein kinase 16 (Homo sapiens, UniProt O75716).
test_readout: Kd

>>> df
                                   compound                              assay_target  test_readout  value_observed
0  Oc1ccc(-c2nc(-c3ccc(F)cc3)c(-c3ccncc3)[nH]2)cc1  Serine/threonine-protein kinase 16 (Homo sapiens, UniProt O75716)            Kd      Not Active
1  O=c1ncn2nc(Sc3ccc(F)cc3F)ccc2c1-c1c(Cl)cccc1Cl  Serine/threonine-protein kinase 16 (Homo sapiens, UniProt O75716)            Kd      Not Active
2  C#Cc1cccc(Nc2ncnc3cc(OCCOC)c(OCCOC)cc23)c1  Serine/threonine-protein kinase 16 (Homo sapiens, UniProt O75716)            Kd      Not Active
3  COc1cc2c(N3CCN(C(=O)Nc4ccc(OC(C)C)cc4)CC3)ncnc2cc1OCCCN1CCCCC1  Serine/threonine-protein kinase 16 (Homo sapiens, UniProt O75716)            Kd      Not Active
4  Cc1ccc(NC(=O)c2ccc(CN3CCN(C)CC3)cc2)cc1Nc1nccc(-c2cccnc2)n1  Serine/threonine-protein kinase 16 (Homo sapiens, UniProt O75716)            Kd      Not Active
5  CCOc1cc2ncc(C#N)c(Nc3ccc(F)c(Cl)c3)c2cc1NC(=O)/C=C/CN(C)C  Serine/threonine-protein kinase 16 (Homo sapiens, UniProt O75716)            Kd      Not Active
6  C[S+]([O-])c1ccc(-c2nc(-c3ccc(F)cc3)c(-c3ccncc3)[nH]2)cc1 (stereo not drawn)  Serine/threonine-protein kinase 16 (Homo sapiens, UniProt O75716)            Kd      Not Active
7  CC[C@H](CO)Nc1nc(NCc2ccccc2)c2ncn(C(C)C)c2n1  Serine/threonine-protein kinase 16 (Homo sapiens, UniProt O75716)            Kd      Not Active
